system: h-Tel quadruplex DNA, 5'-biotin-d[AG3(T2AG3)3] (DNA, G4) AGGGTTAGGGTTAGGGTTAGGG; test: SPR
OBSERVATION TYPE: log10 K (log10 of the value in M⁻¹)
The common logarithm of K in M⁻¹ is what is listed.

Example compounds with recorded log10 K:
Requested field: log10 K. Item: CN1c2ccccc2-c2c3c1cccc3c1ccc(NC(=O)CCS(C)=O)cc1[n+]2C (stereo not shown) 7.36

Give the measured log10 K of COC(=O)c1ccc2c(c1)c1cccc3c1c([n+]2C)-c1ccccc1N3C . 6.62

Give its log10 K value. Item: CC(=O)NCC#Cc1ccc2c3cccc4c3c([n+](C)c2c1)-c1ccccc1N4C 7.15

Data request, read-out log10 K, for CN1c2ccccc2-c2c3c1cccc3c1ccc(NC(=O)CO)cc1[n+]2C 7.17

Field: log10 K. Fill in for each record below.
1. CN1c2ccccc2-c2c3c1cccc3c1ccc(CN)cc1[n+]2C
2. CN1c2ccccc2-c2c3c1cccc3c1ccc(NC(=O)C3CC3)cc1[n+]2C
3. Cc1cc2c3c([n+](C)c4ccc(F)cc4c3c1)-c1cc(F)ccc1N2C [Compound 1, reference compound]
4. CN(C)CC#Cc1ccc2c3cccc4c3c([n+](C)c2c1)-c1ccccc1N4C
5. C[n+]1c2c3c(cccc3c3ccccc31)Sc1ccccc1-2
6. C[n+]1c2c3c(cccc3c3ccccc31)Oc1ccccc1-2

1: 6.87; 2: 7.34; 3: 6.95; 4: 7.47; 5: 6.00; 6: 6.18

====

Kindly supply the reported K values for the records listed here.
test system: hairpin duplex, 5'-biotin-CGA3T3C(CT)2GA3T3CG (DNA, hairpin) CGAAATTTCCTCTGAAATTTCG; assay: SPR
Answers are plain numbers, in M⁻¹.

Completed entries (count: 3):
Please report the recorded K for CN1c2ccccc2-c2c3c1cccc3c1ccc(NC(=O)C3CC3)cc1[n+]2C . 100000

Tell me the measured K of COC(=O)c1ccc2c(c1)c1cccc3c1c([n+]2C)-c1ccccc1N3C , please. 200000

What value of K has been reported for the following compound? CN1c2ccccc2-c2c3c1cccc3c1ccc(NC(=O)CO)cc1[n+]2C 700000

Continuing:
I'd like to know its K. The compound in question is CC(=O)NCC#Cc1ccc2c3cccc4c3c([n+](C)c2c1)-c1ccccc1N4C 900000

====

Give measured inhibition at 1 µM for each item. Keep answers brief.
target: human recombinant β2 adrenergic receptor (Homo sapiens); experiment: β2 adrenergic receptor inhibition assay; format: binding; details: read-out: β2 adrenergic % inh @1 μM
Sequence (P07550 whole entry): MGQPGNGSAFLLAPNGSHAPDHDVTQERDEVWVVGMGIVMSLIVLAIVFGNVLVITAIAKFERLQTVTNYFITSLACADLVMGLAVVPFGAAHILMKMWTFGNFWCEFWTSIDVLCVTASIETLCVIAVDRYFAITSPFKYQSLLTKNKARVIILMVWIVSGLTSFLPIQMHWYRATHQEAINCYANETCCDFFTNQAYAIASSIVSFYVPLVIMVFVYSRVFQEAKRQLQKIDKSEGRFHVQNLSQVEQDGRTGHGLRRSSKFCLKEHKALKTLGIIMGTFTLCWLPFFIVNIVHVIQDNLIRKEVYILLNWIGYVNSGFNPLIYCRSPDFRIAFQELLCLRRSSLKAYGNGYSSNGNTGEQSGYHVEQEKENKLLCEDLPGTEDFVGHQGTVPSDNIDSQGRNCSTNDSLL
Numbers only, in %.

Example compounds with recorded inhibition at 1 µM:
Entry CC(=O)NCC#Cc1ccc2c3cccc4c3c([n+](C)c2c1)-c1ccccc1N4C [Compound 8] : reported inhibition at 1 µM = ? 2

Endpoint output: inhibition at 1 µM of Cc1cc2c3c([n+](C)c4ccc(F)cc4c3c1)-c1cc(F)ccc1N2C [Compound 1, reference compound] . Value? 100

# query: inhibition at 1 µM of entry CN(C)CC#Cc1ccc2c3cccc4c3c([n+](C)c2c1)-c1ccccc1N4C [Compound 7] 0

What does the data say about its inhibition at 1 µM? Entry: COC(=O)c1ccc2c(c1)c1cccc3c1c([n+]2C)-c1ccccc1N3C [Compound 2] 11

Item under review: CN1c2ccccc2-c2c3c1cccc3c1ccc(NC(=O)C3CC3)cc1[n+]2C [Compound 3] . Reported inhibition at 1 µM? 13

Lab note: each compound below needs its inhibition at 1 µM filled in.
1. CN1c2ccccc2-c2c3c1cccc3c1ccc(NC(=O)CO)cc1[n+]2C [Compound 6]
2. CN1c2ccccc2-c2c3c1cccc3c1ccc(CN)cc1[n+]2C [Compound 4]
3. CN1c2ccccc2-c2c3c1cccc3c1ccc(NC(=O)CC[S+](C)[O-])cc1[n+]2C (centres unmarked) [Compound 5]

8
1
10
